System: rabbit vWF A1 domain (SEQ ID NO 6)
Sequence (as listed by the source): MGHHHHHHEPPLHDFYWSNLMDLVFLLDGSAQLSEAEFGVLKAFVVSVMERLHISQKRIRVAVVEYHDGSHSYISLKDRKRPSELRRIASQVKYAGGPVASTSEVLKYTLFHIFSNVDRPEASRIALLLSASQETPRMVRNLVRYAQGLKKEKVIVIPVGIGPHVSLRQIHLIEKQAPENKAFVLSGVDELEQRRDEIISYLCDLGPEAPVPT
runDescription: 3-point dot blot screen, rabbit vWF A1 domain
Format: binding
conditionSet: rRdY aptamers; 100 nM rabbit vWF A1 domain; ratio of fraction bound with target to without
Oligonucleotides are written 5' to 3', each unit as a sugar letter and its base; * is a phosphorothioate linkage, no mark a phosphodiester; rarer units and linkages stand in square brackets, end groups in braces. Plain capitals give the bases only. d = 2'-deoxy (DNA); r = 2'-OH (RNA)
measuredAttribute: Screen- Rabbit/No Protein
Numbers only.

molecule	Screen- Rabbit/No Protein
AMX203.F9: rRdY aptamer clone (nucleic acid) rGrGrArGdCrGdCrAdCdTdCrArGdCdCrAdCdTrGrArArGrGrGdTrArArGrGrAdCrGrArGrGrArGrGrGdTrAdTrAdCrArGdTrGdTrGdCrGdCrGdTrGdTrAdTdTdTdCrGrAdCdCdTdCdTdCdTrGdCdTrArGdC	1.29

Dear colleague, could you please provide Screen- Rabbit/No Protein for the molecules listed below?
1. AMX205.G9: rRdY aptamer clone (nucleic acid) rGrGrArGdCrGdCrAdCdTdCrArGdCdCrAdCrArAdCdTrGrGdTdTrGdTdCrGrGdTrGrAdTrGrGdCrAdTdTrArAdCrGdCrGrGrAdCdCrArGrGdCrAdTrGdTdTdTdCrGrAdCdCdTdCdTdCdTrGdCdTrArGdC
2. AMX205.F9: rRdY aptamer clone (nucleic acid) rGrGrArGdCrGdCrAdCdTdCrArGdCdCrAdCrGrGrArGdCrGdTdCrGrGdTrGrAdTrGrGrAdTdTrArGdCrGdCrGrGdCdTdCdCrGdTrGrGdTrAdCrGdCdCdTdTdTdCrGrAdCdCdTdCdTdCdTrGdCdTrArGdC

1. 1.73
2. 2.47
